These data points were gathered from patent US4877893A.

- Tested on: Penicillium cyclopium
- Method summary: Fungicidal effect on infected agar nutrient media, colony diameter
- Type: cell-based
- Measurement setup: 10 ppm; 7th day after treatment; untreated 26.5
- Experimental: Agar nutrient media (Diameter 70 MM, thickness 10 mm) infected by Sclerotonia sclerotinia suspension are treated with 20 EC formulations prepared according to Example 27 and comprising 1, 10, 100 and 1000 ppm, respectively of the active ingredient of the Formula I. The fungicidal effect of the compositions is evaluated on the 3rd day after treatment by measuring the diameter of the Fungi colonies. […]
Endpoint: Diameter of colony (mm)

Compound | Endpoint | Unit descriptor | Endpoint result
CC(CCl)OP1(=S)OC(C)CS1 (stereo not drawn) [Compound 19] | Diameter of colony (mm) | mm | 15.6
CCCOP1(=S)OCCS1 (stereo not drawn) [Compound 46] | Diameter of colony (mm) | mm | 18.9
CC1CSP(=S)(OC(C)C(C)Cl)O1 (stereo not drawn) [Compound 37] | Diameter of colony (mm) | mm | 17.5
CCCCOP1(=S)OC(C)CS1 (stereo not drawn) [Compound 64] | Diameter of colony (mm) | mm | 20.0
CC(Br)COP1(=S)OC(C)C(C)S1 (stereo not drawn) [Compound 41] | Diameter of colony (mm) | mm | 16.4
CCC(C)OP1(=S)OCCS1 (stereo not drawn) [Compound 49] | Diameter of colony (mm) | mm | 20.3
CC1OP(=S)(OCCCl)SC1C (stereo not drawn) [Compound 16] | Diameter of colony (mm) | mm | 18.1
CC(Cl)C(C)OP1(=S)OCCS1 (stereo not drawn) [Compound 28] | Diameter of colony (mm) | mm | 14.7
CC1CSP(=S)(OCCI)O1 (stereo not drawn) [Compound 6] | Diameter of colony (mm) | mm | 17.3
CC1OP(=S)(OCCI)SC1C (stereo not drawn) [Compound 18] | Diameter of colony (mm) | mm | 14.2
CC(Cl)C(C)OP1(=S)OC(C)C(C)S1 (stereo not drawn) [Compound 43] | Diameter of colony (mm) | mm | 18.4
CC(CCl)OP1(=S)OC(C)C(C)S1 (stereo not drawn) [Compound 34] | Diameter of colony (mm) | mm | 16.5
CC(CI)OP1(=S)OC(C)C(C)S1 (stereo not drawn) [Compound 36] | Diameter of colony (mm) | mm | 16.8
CC(C)CCOP1(=S)OCCS1 (stereo not drawn) [Compound 67] | Diameter of colony (mm) | mm | 19.3
CC1COP(=S)(OC(C)C(C)Cl)S1 (stereo not drawn) [Compound 31] | Diameter of colony (mm) | mm | 14.9
CCC(C)OP1(=S)OC(C)C(C)S1 (stereo not drawn) [Compound 53] | Diameter of colony (mm) | mm | 19.2
CC(I)C(C)OP1(=S)OCCS1 (stereo not drawn) [Compound 30] | Diameter of colony (mm) | mm | 20.0
CC(Cl)COP1(=S)OCC(C)S1 (stereo not drawn) [Compound 25] | Diameter of colony (mm) | mm | 19.8
CC(C)COP1(=S)OCCS1 (stereo not drawn) [Compound 50] | Diameter of colony (mm) | mm | 19.2
CCCCOP1(=S)OCCS1 (stereo not drawn) [Compound 59] | Diameter of colony (mm) | mm | 18.7
CC1CSP(=S)(OCCBr)O1 (stereo not drawn) [Compound 5] | Diameter of colony (mm) | mm | 19.5
CC(Br)C(C)OP1(=S)OCCS1 (stereo not drawn) [Compound 29] | Diameter of colony (mm) | mm | 19.2
CC(CBr)OP1(=S)OC(C)CS1 (stereo not drawn) [Compound 20] | Diameter of colony (mm) | mm | 17.7
CCCCOP1(=S)OC(C)C(C)S1 (stereo not drawn) [Compound 63] | Diameter of colony (mm) | mm | 18.5
CC(CBr)OP1(=S)OCCS1 (stereo not drawn) [Compound 11] | Diameter of colony (mm) | mm | 17.5
CC(Br)C(C)OP1(=S)OC(C)C(C)S1 (stereo not drawn) [Compound 44] | Diameter of colony (mm) | mm | 17.1
CC(Br)COP1(=S)OCCS1 (stereo not drawn) [Compound 14] | Diameter of colony (mm) | mm | 17.6
CCCC(C)OP1(=S)OCCS1 (stereo not drawn) [Compound 62] | Diameter of colony (mm) | mm | 20.2
CCCOP1(=S)OCC(C)S1 (stereo not drawn) [Compound 48] | Diameter of colony (mm) | mm | 19.2
CC1COP(=S)(OCCBr)S1 (stereo not drawn) [Compound 8] | Diameter of colony (mm) | mm | 18.3
CC(CI)OP1(=S)OCCS1 (stereo not drawn) [Compound 12] | Diameter of colony (mm) | mm | 16.1
CC(Cl)COP1(=S)OC(C)CS1 (stereo not drawn) [Compound 22] | Diameter of colony (mm) | mm | 16.2
CC1CSP(=S)(OCCCl)O1 (stereo not drawn) [Compound 4] | Diameter of colony (mm) | mm | 19.4
CC(C)OP1(=S)OCCS1 (stereo not drawn) [Compound 57] | Diameter of colony (mm) | mm | 20.0
S=P1(OCCI)OCCS1 (stereo not drawn) [Compound 3] | Diameter of colony (mm) | mm | 18.6
CC1COP(=S)(OCCI)S1 (stereo not drawn) [Compound 9] | Diameter of colony (mm) | mm | 15.8
CC(C)C(C)OP1(=S)OC(C)C(C)S1 (stereo not drawn) [Compound 54] | Diameter of colony (mm) | mm | 18.8
CC1COP(=S)(OC(C)C(C)I)S1 (stereo not drawn) [Compound 33] | Diameter of colony (mm) | mm | 20.7
CC1CSP(=S)(OC(C)C(C)I)O1 (stereo not drawn) [Compound 39] | Diameter of colony (mm) | mm | 15.8
CC1COP(=S)(OC(C)C(C)Br)S1 (stereo not drawn) [Compound 32] | Diameter of colony (mm) | mm | 16.7
S=P1(OCCBr)OCCS1 (stereo not drawn) [Compound 2] | Diameter of colony (mm) | mm | 19.0
CC(CCl)OP1(=S)OCCS1 (stereo not drawn) [Compound 10] | Diameter of colony (mm) | mm | 19.0
CCCCOP1(=S)OCCS1 (stereo not drawn) [Compound 58] | Diameter of colony (mm) | mm | 16.1
CCOP1(=S)OCCS1 (stereo not drawn) [Compound 55] | Diameter of colony (mm) | mm | 18.1
CCCC(C)OP1(=S)OC(C)C(C)S1 (stereo not drawn) [Compound 66] | Diameter of colony (mm) | mm | 18.6
CC(I)COP1(=S)OCC(C)S1 (stereo not drawn) [Compound 27] | Diameter of colony (mm) | mm | 17.5
CC(CI)OP1(=S)OC(C)CS1 (stereo not drawn) [Compound 21] | Diameter of colony (mm) | mm | 20.0
CC(Cl)COP1(=S)OCCS1 (stereo not drawn) [Compound 13] | Diameter of colony (mm) | mm | 19.2
CC1CSP(=S)(OC(C)C(C)Br)O1 (stereo not drawn) [Compound 38] | Diameter of colony (mm) | mm | 18.6
CC(Br)COP1(=S)OCC(C)S1 (stereo not drawn) [Compound 26] | Diameter of colony (mm) | mm | 18.8
CC1COP(=S)(OCCCl)S1 (stereo not drawn) [Compound 7] | Diameter of colony (mm) | mm | 16.7
